assay: Plasma and cerebral concentrations of oseltamivir and OC after oral administration of OP; format: in vivo, C57BL/6 mice; conditions: C57BL/6, mouse, plasma, po, 300 mg/kg, Mao group (LPS + maoto 125 mg/kg p.o.); OP 300 mg/kg p.o.; read-out: AUC0–120 Plasma (converted)
property: AUC(0-t) (ng·h/mL)
Express your answer in ng·h/mL, writing the number without its unit.

INPUT: Give reported AUC(0-t) value for CCOC(=O)C1=C[C@@H](OC(CC)CC)[C@H](NC(C)=O)[C@@H](N)C1 [Oseltamivir, oseltamivir]
OUTPUT: 62500

INPUT: Give reported AUC(0-t) value for CCC(CC)O[C@@H]1C=C(C(=O)O)C[C@H](N)[C@H]1NC(C)=O [OC, oseltamivir carboxylate]
OUTPUT: 14300

* * *

assay: Plasma and cerebral concentrations of oseltamivir and OC after oral administration of OP; type: in vivo, C57BL/6 mice; settings: C57BL/6, mouse, plasma, po, 300 mg/kg, Kak group (LPS + kakkonto 125 mg/kg p.o.); OP 300 mg/kg p.o.; read-out: AUC0–120 Plasma (converted)
property: AUC(0-t) (ng·h/mL)
Express your answer in ng·h/mL, writing the number without its unit.

INPUT: Give reported AUC(0-t) value for CCC(CC)O[C@@H]1C=C(C(=O)O)C[C@H](N)[C@H]1NC(C)=O [OC, oseltamivir carboxylate]
OUTPUT: 20000

INPUT: Give reported AUC(0-t) value for CCOC(=O)C1=C[C@@H](OC(CC)CC)[C@H](NC(C)=O)[C@@H](N)C1 [Oseltamivir, oseltamivir]
OUTPUT: 84400

* * *

test: Plasma and cerebral concentrations of oseltamivir and OC after oral administration of OP; type: in vivo, C57BL/6 mice; conditions: C57BL/6, mouse, plasma, po, 300 mg/kg, Con group (LPS + saline p.o.); OP 300 mg/kg p.o.; read-out: AUC0–120 Plasma (converted)
property: AUC(0-t)

INPUT: Give reported AUC(0-t) value for CCC(CC)O[C@@H]1C=C(C(=O)O)C[C@H](N)[C@H]1NC(C)=O [OC, oseltamivir carboxylate]
OUTPUT: 12700 ng·h/mL

INPUT: Give reported AUC(0-t) value for CCOC(=O)C1=C[C@@H](OC(CC)CC)[C@H](NC(C)=O)[C@@H](N)C1 [Oseltamivir, oseltamivir]
OUTPUT: 32500 ng·h/mL
